assay_target: P2X2 F303Y+A304W (Homo sapiens, UniProt Q9UBL9, A304W/F303Y)
Sequence (Q9UBL9 1-471 F303Y/A304W): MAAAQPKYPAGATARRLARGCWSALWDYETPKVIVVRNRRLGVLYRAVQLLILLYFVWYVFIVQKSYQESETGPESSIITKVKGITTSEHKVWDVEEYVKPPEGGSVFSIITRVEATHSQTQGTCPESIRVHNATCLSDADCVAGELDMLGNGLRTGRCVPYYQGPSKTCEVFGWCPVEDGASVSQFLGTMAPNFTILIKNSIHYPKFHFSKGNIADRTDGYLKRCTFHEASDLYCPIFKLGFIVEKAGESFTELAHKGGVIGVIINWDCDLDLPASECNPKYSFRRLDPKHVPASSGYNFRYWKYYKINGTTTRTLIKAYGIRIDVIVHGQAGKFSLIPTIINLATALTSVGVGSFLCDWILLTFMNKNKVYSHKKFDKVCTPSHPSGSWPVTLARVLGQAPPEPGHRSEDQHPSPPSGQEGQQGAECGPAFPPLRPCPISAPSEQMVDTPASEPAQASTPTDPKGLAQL
assay_details: Fast GCaMP-mScarletI assay in yeast, P2X2 F303Y+A304W
condition_label: four-parameter logistic fit, n = 3; unit inferred, unit M; read-out: EC50, best fit value
assay_readout: pEC50
Scale note: pEC50 = -log10(concentration in M).

Recorded pEC50 of Nc1ncnc2c1ncn2[C@@H]1O[C@H](COP(=O)(O)OP(=O)(O)OP(=O)(O)O)[C@@H](O)[C@H]1O [ATP] , please.
5.18

====

assay_target: P2X2 F301W (Homo sapiens, UniProt Q9UBL9, F301W)
assay_details: Fast GCaMP-mScarletI assay in yeast, P2X2 F301W
condition_label: four-parameter logistic fit, n = 3; unit inferred, unit M; read-out: EC50, best fit value
Provide the recorded EC50 for the entries that follow.
// units = µM; emit number, no label

Recorded EC50 of `Nc1ncnc2c1ncn2[C@@H]1O[C@H](COP(=O)(O)OP(=O)(O)OP(=O)(O)O)[C@@H](O)[C@H]1O` , please.
5.04

Now give it for `Nc1ncnc2c1ncn2[C@@H]1O[C@H](COP(=O)(O)OP(=O)(O)NP(=O)(O)O)[C@@H](O)[C@H]1O` too.
214

====

assay_target: human P2X2 receptor (Homo sapiens)
Construct: expressed in transfected cells; host or cells: S. cerevisiae BY4741 background, P2X2 genome-integrated under a galactose-inducible promoter
assay_details: GCaMP calcium assay of P2X2 expressed in yeast S. cerevisiae, agonist response
Format: cell-based
condition_label: rapid GCaMP assay format, yeast, Fig. 1D; read-out: EC50 (signaling onset rate ΔF/ΔT)
assay_readout: EC50 (nM)
// units = nM; emit number, no label

Recorded EC50 of `Nc1ncnc2c1ncn2[C@@H]1O[C@H](COP(=O)(O)OP(=O)(O)OP(=O)(O)O)[C@@H](O)[C@H]1O` , please.
1300

====

assay_target: human P2X2 receptor (Homo sapiens)
Construct: expressed in transfected cells; host or cells: S. cerevisiae BY4741 background, P2X2 genome-integrated under a galactose-inducible promoter
assay_details: GCaMP calcium assay of P2X2 expressed in yeast S. cerevisiae, agonist response
Type: cell-based
condition_label: kinetic and dose-response GCaMP assay, yeast, Fig. 1E-F; read-out: EC50
assay_readout: EC50 (µM)
// units = µM; emit number, no label

Recorded EC50 of Nc1nc(Cl)nc2c1ncn2[C@@H]1O[C@H](COP(=O)(O)OP(=O)(O)OP(=O)(O)O)[C@@H](O)[C@H]1O [2-Chloro ATP, 2-Chloro-Adenosinetriphosphate] , please.
1
